Assignment: determine reported Rescue concentration, Imi (2) for the given molecules.
System: Stenotrophomonas maltophilia MDR 7785
Assay: Rescue concentration, modified checkerboard MIC adjuvant assay
Format: cell-based
Details: S. maltophilia MDR 7785; Imi at susceptible breakpoint 2 μg mL^−1
Quick reminder: number only, in µg/mL, skip the unit.

input: // map Brc1ccc(C(c2c[nH]c3cnccc23)c2c[nH]c3cnccc23)cc1 [SP-6azaBIM 125] to recorded Rescue concentration, Imi (2) (system: Stenotrophomonas maltophilia MDR 7785)
output: 16

input: Now try Oc1ccc(C(c2c[nH]c3cnccc23)c2c[nH]c3cnccc23)cc1 [SP-6azaBIM 136] .
output: 32

input: Now try Brc1ccc(C(c2c[nH]c3ncccc23)c2c[nH]c3ncccc23)cc1 [SP-7azaBIM 126] .
output: 16
